Subject of test: AHR (Homo sapiens, UniProt P35869)
Construct: U87 MG glioblastoma cells (ATCC #HTB-14) endogenously expressing AHR; endogenous in cells; host or cells: U87 MG glioblastoma cells (ATCC #HTB-14)
Sequence (P35869 11-848): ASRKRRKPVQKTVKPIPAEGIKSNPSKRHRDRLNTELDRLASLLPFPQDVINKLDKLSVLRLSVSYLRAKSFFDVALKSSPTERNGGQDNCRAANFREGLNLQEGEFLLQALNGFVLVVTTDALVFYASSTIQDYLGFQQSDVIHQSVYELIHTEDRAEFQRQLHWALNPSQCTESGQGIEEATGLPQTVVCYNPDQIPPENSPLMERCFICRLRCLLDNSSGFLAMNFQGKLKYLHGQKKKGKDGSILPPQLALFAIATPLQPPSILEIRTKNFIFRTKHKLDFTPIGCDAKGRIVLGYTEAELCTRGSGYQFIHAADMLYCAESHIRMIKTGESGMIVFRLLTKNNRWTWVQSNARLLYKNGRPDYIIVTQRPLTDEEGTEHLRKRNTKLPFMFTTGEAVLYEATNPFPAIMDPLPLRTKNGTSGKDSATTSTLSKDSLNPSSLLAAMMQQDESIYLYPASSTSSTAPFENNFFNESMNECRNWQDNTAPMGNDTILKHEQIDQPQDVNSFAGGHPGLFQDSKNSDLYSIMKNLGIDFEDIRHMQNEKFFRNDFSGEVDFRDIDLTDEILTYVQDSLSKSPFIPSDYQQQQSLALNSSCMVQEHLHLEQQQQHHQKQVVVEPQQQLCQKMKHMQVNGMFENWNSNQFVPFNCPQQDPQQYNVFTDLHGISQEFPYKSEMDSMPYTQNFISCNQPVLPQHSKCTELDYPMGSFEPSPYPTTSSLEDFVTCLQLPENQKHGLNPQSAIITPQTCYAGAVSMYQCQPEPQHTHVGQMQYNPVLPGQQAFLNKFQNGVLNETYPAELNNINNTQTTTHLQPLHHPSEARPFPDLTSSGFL
Procedure text: In vitro assay 1: antagonism in human cell line (AHR transactivation, firefly luciferase reporter, kynurenic acid prestimulated)
Type: cell-based
Condition details: AHR Antagonism Human IC50 [M]
Property name: IC50 (M)

P: COc1cccc(-c2nc3c4ccc(F)cc4nc(N[C@H]4CCCNC4=O)n3n2)c1 [Example 151]
Q: O=C1NCCNC[C@H]1Nc1nc2c(Cl)cccc2c2nc(-c3ccc(F)cc3)nn12 [Example 420]
Query: Field: lower recorded IC50 (choose P or Q ) Label of pick, please.
Response: Q
(Q: 9.36e-10 M, P: 2.36e-06 M)

1: O=C1NCCCC[C@H]1Nc1nc2ccccc2c2nc(-c3cnsc3)nn12 [Example 645]
2: O=C1NCCCC[C@H]1Nc1nc2ccccc2c2nc(-c3cc[nH]n3)nn12 [Example 62]
3: CCCCNC(=O)CNc1nc2ccccc2c2nc(-c3ccncc3F)nn12 [Example 485]
4: CCC[C@@H](Nc1nc2ccccc2c2nc(-c3csc(C)c3)nn12)C(=O)NC [Example 357]
5: Cc1cccc(-c2nc3c4ccccc4nc(N[C@@H]4CCCCNC4=O)n3n2)c1 [Example 53]
Query: Kindly order the items shown according to IC50, from the highest value down. To answer, write out the labels according to the requested order.
Response: 3, 2, 1, 5, 4

The values you see were collected from patent US20230113037A1.
